assay_details: chemical genetic growth profiling, strain panel (AID 1159580);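 also: tested at 20 µM; growth read once vehicle control cultures reached saturation at 30 °C; 1 = growth at the plate median or of vehicle wells; lower values mean less growth of the strain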
measurement_context: S. cerevisiae deletion strains, growth OD, locus YIL073C, strain SPO22, stronger effect = lower value
Hit rate of the full screen: of about 5,500 compounds, about 2,000 (36%) were called active. Another 18% or so got no clear call; they are omitted. This is one part of the list.
quantity_name: normalized growth
Answers are plain numbers.

Some molecules with known normalized growth results, for comparison:
• CCN(CC)CCNC(=O)c1cc(Br)c(N)cc1OC = 1.04
• CC(C)(O)[C@@H]1[C@H]2OC(=O)[C@@H]1[C@]1(O)C[C@H]3O[C@]34C(=O)O[C@H]2[C@]14C = 1.06
• CCCCCCCCNC(C)C(O)c1ccc(SC(C)C)cc1 (stereo not given) = 0.102
• COc1ccc2cc([C@H](C)CO)ccc2c1 = 0.954
• CN(C)C(=S)SSC(=S)N(C)C = 0.0945

Batch request: normalized growth for each of the following molecules.
1. COc1ccc2cc([C@H](C)C(=O)O)ccc2c1
2. CC(CCc1ccccc1)NC(C)C(O)c1ccc(O)cc1 (stereo not given)
3. CCS(=O)CCSP(=O)(OC)OC (stereo not given)
4. CC1/C(=N\O)C[C@@H]2C[C@H]1C2(C)C (stereo not given in full)
5. COc1ccc(OC)c(C(O)C(C)N)c1 (stereo not given)

Reply:
1.03
0.979
1.06
1.05
1

Batch request: normalized growth for each of the following molecules.
1. CCC(=O)O[C@H]1CCC2C3CCC4=CC(=O)CC[C@]4(C)C3CC[C@@]21C (stereo not given in full)
2. COc1cc(NC(C)CCCN)c2ncccc2c1 (stereo not given)
3. CC1(C)C(C=C(Cl)Cl)C1C(=O)OC(C#N)c1cccc(Oc2ccccc2)c1 (stereo not given)
4. COP(=O)(OC)OC=C(Cl)Cl
5. CC(=O)C1CCC2C3CC(=O)C4=CC(=O)CCC4(C)C3CCC12C (stereo not given)

Reply:
1. 0.807
2. 1.1
3. 0.99
4. 1.06
5. 0.99

Batch request: normalized growth for each of the following molecules.
1. COc1cc2c(cc1OC)C1C(=O)c3c(O)cc4c(c3OC1CO2)C=CC(C)(C)O4 (stereo not given)
2. COc1cc2c(cc1OC)C1C(=O)c3c(OC)cc4c(c3OC1CO2)CCC(C)(C)O4 (stereo not given)
3. O=C(CC[N+](=O)[O-])OC[C@H]1O[C@@H](O)[C@H](OC(=O)CC[N+](=O)[O-])[C@@H](OC(=O)CC[N+](=O)[O-])[C@@H]1OC(=O)CC[N+](=O)[O-]
4. COc1ccc2c3c1O[C@H]1C[C@@H](O)C=C[C@@]31CCN(C)C2

Reply:
1. 1.08
2. 0.948
3. 1.13
4. 1.04

====

assay_details: chemical genetic growth profiling, strain panel (AID 1159580);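 also: tested at 20 µM; growth read once vehicle control cultures reached saturation at 30 °C; 1 = growth at the plate median or of vehicle wells; lower values mean less growth of the strain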
measurement_context: S. cerevisiae deletion strains, growth OD, locus YPL051W, strain arl3
Among all 5,500 compounds or so, about 2,000 (36%) were called active. About 18% were inconclusive and are not listed. Cut-off read from the data, not from the text of the source: active = normalized growth mostly below about 0.91 (no sharp cut-off); inconclusive = no clear call, values can overlap the other calls; inactive = mostly above about 0.92. This is one part of the list.
A correct response names exactly one class from True (active), False (inactive)

Here's what some known entries look like.
- COc1ccc2cc([C@H](C)CO)ccc2c1: False
- CC(=O)[C@H]1CCC2C3CCC4=CC(=O)CC[C@]4(C)C3CC[C@@]21C (some centres not stated): True

Task item: So what was the verdict on `COc1cc2c(cc1OC)[C@@H]1C(=O)c3ccc(O)c(CC=C(C)C)c3O[C@@H]1CO2` in this test?
Reply: False

Task item: So what was the verdict on `COc1ccc2c(c1)OCc1c-2oc2cc(OC)ccc12` in this test?
Reply: True

Task item: So what was the verdict on `COc1cc2c(cc1OC)[C@@H]1C(=O)c3ccc4oc(C(C)C)cc4c3O[C@@H]1CO2` in this test?
Reply: False

Task item: So what was the verdict on CC(N)CCCC(C)(C)O (configuration not stated) in this test?
Reply: False

Task item: So what was the verdict on `CC(=O)N[C@@H](CC(C)C)C(=O)O` in this test?
Reply: False

Task item: So what was the verdict on `O=C(O)c1cc2ccccc2c(Cc2c(O)c(C(=O)O)cc3ccccc23)c1O` in this test?
Reply: False

Task item: So what was the verdict on `COc1ccc2c(c1)O[C@@H]1COc3cc(OC)c(OC)cc3[C@@H]1C2=O` in this test?
Reply: True

Task item: So what was the verdict on `CCN(CC)CCNC(=O)c1cc(Br)c(N)cc1OC` in this test?
Reply: False

Task item: So what was the verdict on C=C1C2CC[C@H]3[C@]4(C)C[C@H](OC5OC(CO)C(OS(=O)(=O)O)C(OS(=O)(=O)O)C5OC(=O)CC(C)C)C[C@@H](C(=O)O)[C@H]4CC[C@]3(C2)[C@H]1O (some centres not stated) in this test?
Reply: False

Task item: So what was the verdict on `O=C(O)c1c2ccccc2cc2ccccc12` in this test?
Reply: False
